meta.source: ChEMBL document CHEMBL1149071

system: Penicillium; assay: Antifungal ativity against Penicillium; format: functional, organism-based
The source made the active and inactive calls. The calls are words filed in the database; no cut-off is given here.
Recorded Metric: Growth-inhibition halo

[[record]]
compound = "COc1cc(C[C@H]2COC(=O)[C@@H]2Cc2ccc(O)c(OC)c2)ccc1O"
result_value = "inactive"

[[record]]
compound = "COc1cc(C[C@H]2COC(O)[C@@H]2Cc2ccc(O)c(OC)c2)ccc1O (some centres undefined)"
result_value = "inactive"

[[record]]
compound = "COc1cc(C[C@H](CO)Oc2ccc(C[C@H]3C(=O)OC[C@@H]3Cc3ccc(O)c(OC)c3)cc2OC)ccc1O"
result_value = "inactive"

[[record]]
compound = "COc1cc(C[C@H]2CO[C@H](c3ccc(O)c(OC)c3)[C@H]2CO)ccc1O"
result_value = "inactive"

